System: HCT-116
Assay Text: NCI tumour cell line growth inhibition, 48 h
Calls of active or inactive are those of the source. No stated cut-off is given here; in the data, active = GI50 up to about 1.1 µM and inactive = higher.
Would you mind answering with one of these outcomes? label 1 for active, label 0 for inactive

Please review the entries below; each comes with its answer.
O=C1c2cc([N+](=O)[O-])ccc2-c2ccc3c4ccc5c6c(ccc(c7ccc1c2c73)c64)C(=O)c1cc([N+](=O)[O-])ccc1-5 ... label 0
CCOC(=O)c1cc(-n2nnc3ccccc32)cn1C ... label 0
CC(C)(O)C(O)COc1c2c(cc3oc(=O)ccc13)OCO2 (stereo not drawn) ... label 0

# lookup: test call for O=[N+]([O-])c1ccc(-c2nnc(C34CC5CC(CC(C5)C3)C4)o2)cc1
label 0

====

Tested on: LOX IMVI
Assay Text: NCI tumour cell line growth inhibition, 48 h
Calls of active or inactive are those of the source. Rule as the data show it: active = GI50 up to about 1.1 µM and inactive = higher.
Measure Name: GI50

The following compounds have reported results that may help.
CC(O)C(O)C(O)C(/C=N\Nc1ccccc1)=N/Nc1ccccc1 (centres undefined) ... 4.58 µM (inactive)
CC(=O)OCCOCBr ... > 100 µM (inactive)
CCCCS(=N)(=O)CC[C@H](N)C(=O)O (some centres undefined) ... 237 µM (inactive)

Note: attention shifts to another entry.
Look up GI50 with LOX IMVI for this compound: N=C(N)NNC(=O)C(=O)O
> 100 µM (inactive)

====

System: Malme-3M
Assay Text: NCI tumour cell line growth inhibition, 48 h
Active and inactive are the calls of the source. Cut-off read from the data, not from the text of the source: active = GI50 up to about 1.1 µM and inactive = higher.
Would you mind answering with one of these outcomes? true for active, false for inactive

O=C1CC(O)C=C1Nc1ccc(Cl)cc1 (centres undefined) ... false

# lookup: test call for CN(C)CC(C)(C)/C(=N\Nc1ccccc1)c1ccccc1
false

# lookup: test call for Cn1c(=O)c2c3ccccc3n(C)c2n(C)c1=O
false

# lookup: test call for CCN(CC)CC[S+]([O-])c1c2cc(OC)ccc2nc2ccc(OC)cc12 (centres undefined)
true

# lookup: test call for CCOC(=O)/C(C)=C(/O)C(=O)OCC
false

# lookup: test call for N#CS/C(C(Cl)=C(Cl)Cl)=C(/Cl)[N+](=O)[O-]
false

# lookup: test call for NC1=NC(=O)[C@H](Cc2c[nH]c3ccccc23)N1C(=O)OCc1ccccc1
false

# lookup: test call for Cc1cc([N+](=O)[O-])c(C)c(Br)c1C
false

# lookup: test call for NCCCc1ccc2oc3ccccc3c2c1
false

====

Tested on: HOP-62
Assay Text: NCI tumour cell line growth inhibition, 48 h
The source made the active and inactive calls. Cut-off read from the data, not from the text of the source: active = GI50 up to about 1.1 µM and inactive = higher.
For each record, write down the corresponding GI50.

COC(=O)CC1C(=O)OCc2c1cc1n(c2=O)Cc2c-1nc1ccccc1c2OC (configuration not stated) ... 11 µM (inactive)
O=[N+]([O-])c1ccc2nc3ccccc3cc2c1 ... 2.26 µM (inactive)

// each compound listed below needs its GI50
1. O=c1c(-c2ccccc2Cl)coc2cc(F)ccc12
2. N=c1oc2c(Br)cc(Br)cc2cc1C(=O)Nc1ccccn1
3. CCOC(=O)c1[nH]c2nc(SC)nc(NC)c2c1N
4. O=C(CCC(=O)CC(O)(C(F)(F)F)C(F)(F)F)CC(O)(C(F)(F)F)C(F)(F)F

22.2 µM (inactive)
53 µM (inactive)
> 100 µM (inactive)
52.5 µM (inactive)

Item under review: CC1OC(n2cc(F)c(=O)[nH]c2=O)C(O[Si](C)(C)C(C)(C)C)C1O[Si](C)(C)C(C)(C)C (configuration not stated) . Reported GI50?
21.5 µM (inactive)

====

For each record, write down the corresponding GI50.
Test system: SK-OV-3
Assay Text: NCI tumour cell line growth inhibition, 48 h
The source made the active and inactive calls. No stated cut-off is given here; in the data, active = GI50 up to about 1.1 µM and inactive = higher.

C=C1C(=O)CC2C1CC(=O)/C(C)=C/CCC(C)(O)C2O (stereo not drawn) ... 2.84 µM (inactive)
O=C(CC1(O)C(=O)Nc2ccccc21)c1ccc(Cl)cc1Cl (stereo not drawn) ... > 100 µM (inactive)

Item under review: CN(C)C(=S)/N=c1\ss/c(=N\C(=S)N(C)C)n1Cc1ccco1 . Reported GI50?
> 100 µM (inactive)

====

System: OVCAR-8
Assay Text: NCI tumour cell line growth inhibition, 48 h
The source made the active and inactive calls. No stated cut-off is given here; in the data, active = GI50 up to about 1.1 µM and inactive = higher.
Would you mind answering with one of these outcomes? active, inactive

COc1cc2oc(-c3ccc4c(c3)OCO4)c(OC)c(=O)c2c(OC)c1O ... inactive
CC(=O)OCCC(O[Si](c1ccccc1)(c1ccccc1)C(C)(C)C)C(C)(C)O (stereo unspecified) ... inactive
CN(C(=O)C12C3C4C5C3C1(C(=O)C13C6C7C8C6C1C8C73)C5C42)C(C)(C)C (stereo unspecified) ... inactive
Cc1cc(O)cc2c1O[C@@]1(C)CCC3[C@@]4(C)CC[C@H](O)C(C)(C)C4CC[C@@]3(C)[C@H]1C2 (stereo partly specified) ... inactive
CCOC(=O)c1c(OCC)[nH]c(=O)c(C(c2ccc(F)cc2)c2c(O)c(C(=O)OCC)c(OCC)[nH]c2=O)c1O ... inactive

# lookup: test call for COc1cc(C2SCC(=O)N2c2ccc(Oc3ccc(Cl)cc3)c(Cl)c2)cc(OC)c1OC (stereo unspecified)
inactive

# lookup: test call for N=c1oc2c(Br)cc(Br)cc2cc1C(=O)Nc1ccccn1
inactive

====

For each record, write down the corresponding GI50.
Test system: HCT-15

The following molecules have reported results that may help.
NC(=O)c1csc(-c2ccc(CO)o2)n1 ... > 100 µM
CC(C)(C)CC(C)(C)NCC(O)COc1ccc(C(C)(C)c2ccc(OCC(O)CNC(C)(C)CC(C)(C)C)cc2)cc1 (configuration not stated) ... 1.37 µM
CS(=O)(=O)OC1CN2CCC1CC2 (configuration not stated) ... > 100 µM
C[C@@]12C[C@@H](c3ccccc3O1)N1CCSC1=N2 ... > 100 µM
C=C1C(=O)CC2C1CC(=O)/C(C)=C/CCC(C)(O)C2O (configuration not stated) ... 4.9 µM
C[C@H]1C(=O)CC[C@]2(C)CCC(C(C)(C)O)CC12O (some centres not stated) ... > 100 µM
CC(=O)NNc1nc(C)c(C(=O)NNC(=O)C(=O)Nc2c(C)cccc2C)s1 ... 32.3 µM
CCCN(CCC)C(=O)c1c([N+](=O)[O-])cc(C(F)(F)F)cc1[N+](=O)[O-] ... 27 µM
O=C(O)c1cc(NCc2cc(O)ccc2O)ccc1O ... > 100 µM
O=P1(c2ccccc2)c2ccccc2-c2ccccc21 ... > 100 µM

// each molecule listed below needs its GI50
1. c1ccc(CN2C3C4N(Cc5ccccc5)C2C2N(Cc5ccccc5)C(C(N2Cc2ccccc2)N4Cc2ccccc2)N3Cc2ccccc2)cc1
2. C=C(C)CCC1C=[N+]([O-])OC(C)(C)C1(C)C (configuration not stated)
3. O=C(c1cccc2ccccc12)N1CCC(C2CCN(C(=O)c3cccc4ccccc34)CC2)CC1

1. > 100 µM
2. 84.3 µM
3. > 100 µM

// each molecule listed below needs its GI50
1. COc1ccc(Cc2n[nH]c(Nc3ccc(Br)cc3)nc2=O)cc1OC
2. N=C(N)SCCON1C(=O)c2ccccc2C1=O
3. C[C@@H](NC1CCCC[C@@H]1O)c1ccccc1 (some centres not stated)
4. COc1cc(C2SC(=N)Nc3c2c(C)nn3C(=O)c2ccc(Cl)cc2)ccc1O (configuration not stated)
5. CCCCCOCC(O)CO (configuration not stated)
6. COC(=O)CC(=O)OC

> 100 µM
> 100 µM
> 100 µM
> 10 µM
> 100 µM
> 100 µM

// each molecule listed below needs its GI50
1. Cc1ccc(S(=O)(=O)N/N=C2\CCCCC23CCC(=O)NC3)cc1 (configuration not stated)
2. COC(=O)CC1C(=O)OCc2c1cc1n(c2=O)Cc2c-1nc1ccccc1c2OC (configuration not stated)
3. CC1(C)OCC(C2OC(OC(=O)c3ccc([N+](=O)[O-])cc3)C3OC(C)(C)OC23)O1 (configuration not stated)
4. Cn1c(=O)c2c3ccccc3n(C)c2n(C)c1=O
5. O=[N+]([O-])c1cnn(C2=CNc3ccccc3N=C2)c1
6. Clc1ccc(C2ON=C(c3ccccc3)N2C23CC4CC(CC(C4)C2)C3)cc1Cl (configuration not stated)
7. CC(=O)c1c2c(cc3c1CCC3)CCC2

["> 100 µM", "> 100 µM", "> 100 µM", "> 100 µM", "> 100 µM", "> 10 µM", "> 100 µM"]

// each molecule listed below needs its GI50
1. CCOP(=O)(OCC)c1ccc(=O)[nH]c1-c1cccs1
2. O=c1oc2nc(-c3ccccc3)cc(C(F)(F)F)c2n1Cc1ccccc1
3. Clc1nc(Cl)nc(NC23CC4CC(CC(C4)C2)C3)n1
4. Cn1c2ccccc2c2c(=S)c3ccccc3ccc21
5. NC(=O)c1ncn2c(=O)n(CCl)nnc12
6. COc1ccccc1NC(=S)Nc1cc(C)ccn1

> 100 µM
1.87 µM
15.6 µM
> 100 µM
41.4 µM
> 100 µM
